# System: Mycobacterium tuberculosis H37Rv
# procedure.details: Mycobacterium tuberculosis H37Rv Inhibition Assay (Whole Cell Assay)
# Assay type: cell-based
# test.context: ATCC 25618 / H37Rv, H37Rv strain (ATCC25618), Middlebrook 7H9, six days at 37° C., resazurin fluorescence after 48 hours
measurement.kind: MIC

For reference, reported MIC for Cc1cc(C)n(C(C)c2nnc(Nc3ccn(Cc4ccc(Cl)cc4)n3)s2)n1 (centres unmarked) stands at 4 to 10 µM

Notebook: Cc1cc(C)n(C(C)c2nnc(Nc3ccn(Cc4c(F)ccc(F)c4F)n3)s2)n1 (centres unmarked) , MIC read as ≤ 1 µM

Memo: Cc1csc(C(C)c2nnc(Nc3ccn(Cc4cccc(C)c4F)n3)s2)n1 (centres unmarked) , reported MIC: 1 to 4 µM

Memo: `Cc1cc(C(F)F)nn1Cc1nnc(Nc2ccn(Cc3c(F)cccc3Cl)n2)s1` , reported MIC: > 10 µM

GET /value?item= Cc1cc(C(F)F)nn1C(C)c1nnc(Nc2ccn(Cc3ccccc3)n2)s1 (centres unmarked) &field=MIC returns 4 to 10 µM

Record Cc1cc(C)n(C(C)c2nnc(Nc3ccn(Cc4cc(C(F)(F)F)ccc4Cl)n3)s2)n1 (centres unmarked) . Reported MIC: > 10 µM

Lab book: MIC of Cc1cc(C(F)F)nn1C(C)c1nnc(Nc2ccn(Cc3ccccc3Cl)n2)s1 (centres unmarked) noted as 4 to 10 µM

The recorded MIC for Cc1ccn([C@H](C)c2nnc(Nc3ccn(Cc4c(F)cccc4Cl)n3)s2)n1 (single isomer, unassigned) is 1 to 4 µM

Entry under test: Cc1csc([C@@](C)(O)c2nnc(Nc3ccn(Cc4c(F)cccc4F)n3)s2)n1 (single isomer, unassigned) . Its MIC was > 10 µM

Value of MIC reported for the compound `Cc1cc([N+](=O)[O-])nn1Cc1nnc(Nc2ccn(Cc3ccccc3)n2)s1` is > 10 µM

The value of MIC measured for the compound Cc1ccn(C(C)c2nnc(Nc3ccn(Cc4cc(Cl)ccc4Cl)n3)s2)n1 (centres unmarked) turned out to be 4 to 10 µM

Measured MIC, Cc1cc(C)n(C(C)c2nnc(Nc3ccn(Cc4cc(N)ccc4Cl)n3)s2)n1 (centres unmarked) : > 10 µM

MIC measured on `Cc1cc(C(F)(F)F)nn1Cc1nnc(Nc2ccn(Cc3ccccc3Cl)n2)s1` = > 10 µM

Reported MIC of COC(c1nc(C)cs1)c1nnc(Nc2ccn(Cc3c(F)cccc3F)n2)s1 (centres unmarked) : > 10 µM

Summary for this compound, Cc1cc(C)n(C(C)c2nnc(Nc3ccn(Cc4c(F)cccc4F)n3)s2)n1 (centres unmarked) : MIC is ≤ 1 µM

Looking up `FC(F)(F)c1ccn(Cc2nnc(Nc3ccn(Cc4ccccc4)n3)s2)n1` , I see its MIC listed as > 10 µM

MIC recorded for this compound, Cc1ccn(C(C)c2nnc(Nc3ccn(Cc4ccccc4)n3)s2)n1 (centres unmarked) , is 1 to 4 µM

---

# System: Mycobacterium tuberculosis H37Rv
# procedure.details: Mycobacterium tuberculosis H37Rv Inhibition Assay (Whole Cell Assay)
# Assay type: cell-based
# test.context: ATCC 25618 / H37Rv, H37Rv strain (ATCC25618), Middlebrook 7H9, six days at 37° C., resazurin fluorescence after 48 hours
Field: MIC. Provide a value for each of the compounds that follow.

Sample `O=[N+]([O-])c1ccn(Cc2nnc(Nc3ccn(Cc4c(F)cccc4Cl)n3)s2)n1` ; MIC observed: > 10 µM

The recorded MIC for `Cc1cc([N+](=O)[O-])nn1Cc1nnc(Nc2ccn(Cc3c(F)cccc3Cl)n2)s1` is > 10 µM

Lab note: measured MIC of Cc1cc(C)n(C(C)c2nnc(Nc3ccn(Cc4cc(C(F)(F)F)ccc4C(F)(F)F)n3)s2)n1 (stereo not shown) was > 10 µM

Field MIC (entry Cc1ccn(C(C)c2nnc(Nc3ccn(Cc4ccccc4Cl)n3)s2)n1 (stereo not shown) ) reads 1 to 4 µM
